- target system: Lck (Homo sapiens, UniProt P06239)
- Construct: Kinases are expressed as either kinase domains or full length constructs; made in house
- Sequence (P06239 whole entry, species assumed, the tested form may be a part): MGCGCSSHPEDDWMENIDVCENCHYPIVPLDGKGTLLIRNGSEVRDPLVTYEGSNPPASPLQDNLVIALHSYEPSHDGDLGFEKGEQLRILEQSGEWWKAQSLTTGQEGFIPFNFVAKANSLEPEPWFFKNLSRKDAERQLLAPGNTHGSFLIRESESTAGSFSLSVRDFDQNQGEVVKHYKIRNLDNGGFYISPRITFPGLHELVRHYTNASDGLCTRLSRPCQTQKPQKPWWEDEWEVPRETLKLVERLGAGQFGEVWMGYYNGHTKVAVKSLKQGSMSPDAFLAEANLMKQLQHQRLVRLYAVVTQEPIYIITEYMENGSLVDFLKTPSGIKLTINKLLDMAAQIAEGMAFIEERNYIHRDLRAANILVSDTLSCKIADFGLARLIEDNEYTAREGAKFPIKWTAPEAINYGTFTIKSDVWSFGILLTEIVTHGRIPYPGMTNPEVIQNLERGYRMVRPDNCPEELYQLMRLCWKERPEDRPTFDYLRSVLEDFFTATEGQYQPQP
- method notes: Kinase inhibition assay (33P transfer), Lck
- Assay type: biochemical
- condition summary: Table 3, class symbols; read-out: Lck-1
pIC50: −log10 of the molar value.
observation type: pIC50

structure: FC(F)(F)Oc1ccc(Nc2ncnc(Nc3ccc4c(cnn4Cc4ccccc4)c3)n2)cc1
target system: Lck (Homo sapiens, UniProt P06239)
pIC50: < 5.03
//
structure: Cc1ccc2c(c1)CCCN2c1ncnc(Nc2cccc(Cc3nnn[nH]3)c2)n1
target system: Lck (Homo sapiens, UniProt P06239)
pIC50: 5.06 to 5.22

For the compound shown here, COC(=O)c1ccc(-c2cc(Nc3ncnc(NCCN4CCOCC4)n3)[nH]n2)cc1 , give the reported pIC50.
< 4.97

Follow-up entry: c1cc(Cn2ccnn2)cc(Nc2ncnc(-n3c(Nc4ccc5[nH]ccc5c4)nc4ccccc43)n2)c1
5.32 to 6.10

Follow-up entry: COC(=O)c1ccc(-c2cc(Nc3ncnc(Nc4cccc(Cc5nnn[nH]5)c4)n3)[nH]n2)cc1
5.13 to 5.29

Follow-up entry: COC(=O)c1cccc(Nc2ncnc(-n3c(Cl)nc4ccccc43)n2)c1
< 4.93

Follow-up entry: CNS(=O)(=O)Cc1ccc(Nc2ncnc(Nc3cc(-c4ccc(C(=O)OC)cc4)n[nH]3)n2)cc1
< 5.04

Follow-up entry: COC(=O)c1ccc(-c2cc(Nc3ncnc(NC4=NC(=O)CS4)n3)[nH]n2)cc1
< 4.96

###

- target system: Zap-70 (Homo sapiens)
- Construct: Kinases are expressed as either kinase domains or full length constructs; made in house
- Sequence (P43403 whole entry, species assumed, the tested form may be a part): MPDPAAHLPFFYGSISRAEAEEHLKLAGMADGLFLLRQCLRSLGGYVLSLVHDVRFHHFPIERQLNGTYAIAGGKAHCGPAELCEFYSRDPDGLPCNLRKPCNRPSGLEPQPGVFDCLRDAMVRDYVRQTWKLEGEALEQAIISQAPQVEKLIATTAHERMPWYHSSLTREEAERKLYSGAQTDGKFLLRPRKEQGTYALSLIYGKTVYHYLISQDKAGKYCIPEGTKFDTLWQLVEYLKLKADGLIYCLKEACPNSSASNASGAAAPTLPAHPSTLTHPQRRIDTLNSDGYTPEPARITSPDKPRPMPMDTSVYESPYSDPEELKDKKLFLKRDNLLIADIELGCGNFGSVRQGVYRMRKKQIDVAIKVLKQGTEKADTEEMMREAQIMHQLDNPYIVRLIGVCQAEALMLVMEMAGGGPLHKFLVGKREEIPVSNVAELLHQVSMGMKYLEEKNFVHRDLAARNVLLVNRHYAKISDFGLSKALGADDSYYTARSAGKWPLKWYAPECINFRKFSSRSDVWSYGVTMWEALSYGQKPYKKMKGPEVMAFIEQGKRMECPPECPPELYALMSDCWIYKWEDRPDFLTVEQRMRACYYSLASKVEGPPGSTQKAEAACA
- method notes: Kinase inhibition assay (33P transfer), Zap-70
- Assay type: biochemical
- condition summary: Table 3, class symbols; read-out: Zap-1
Quick reference for IC50 among some molecules

Give IC50 (Zap-70 (Homo sapiens)) of the following molecule: c1cc(Nc2ncnc(Nc3cc(-c4ccco4)[nH]n3)n2)cc(-c2cnco2)c1
1.04 to 6.21 µM

Follow-up entry: CN(c1ccc(Cl)c(Cl)c1)c1ncnc(Nc2ccc3c(cnn3Cc3ccccc3)c2)n1
> 9.45 µM

Follow-up entry: COc1cc(Nc2ncnc(-c3cccnc3NC3CCc4ccccc43)n2)cc(OC)c1OC (stereo not shown)
> 9.56 µM

###

- target system: EGFR (Homo sapiens, UniProt P00533)
- Construct: Kinases are expressed as either kinase domains or full length constructs; made in house
- Sequence (P00533 25-1210, species assumed): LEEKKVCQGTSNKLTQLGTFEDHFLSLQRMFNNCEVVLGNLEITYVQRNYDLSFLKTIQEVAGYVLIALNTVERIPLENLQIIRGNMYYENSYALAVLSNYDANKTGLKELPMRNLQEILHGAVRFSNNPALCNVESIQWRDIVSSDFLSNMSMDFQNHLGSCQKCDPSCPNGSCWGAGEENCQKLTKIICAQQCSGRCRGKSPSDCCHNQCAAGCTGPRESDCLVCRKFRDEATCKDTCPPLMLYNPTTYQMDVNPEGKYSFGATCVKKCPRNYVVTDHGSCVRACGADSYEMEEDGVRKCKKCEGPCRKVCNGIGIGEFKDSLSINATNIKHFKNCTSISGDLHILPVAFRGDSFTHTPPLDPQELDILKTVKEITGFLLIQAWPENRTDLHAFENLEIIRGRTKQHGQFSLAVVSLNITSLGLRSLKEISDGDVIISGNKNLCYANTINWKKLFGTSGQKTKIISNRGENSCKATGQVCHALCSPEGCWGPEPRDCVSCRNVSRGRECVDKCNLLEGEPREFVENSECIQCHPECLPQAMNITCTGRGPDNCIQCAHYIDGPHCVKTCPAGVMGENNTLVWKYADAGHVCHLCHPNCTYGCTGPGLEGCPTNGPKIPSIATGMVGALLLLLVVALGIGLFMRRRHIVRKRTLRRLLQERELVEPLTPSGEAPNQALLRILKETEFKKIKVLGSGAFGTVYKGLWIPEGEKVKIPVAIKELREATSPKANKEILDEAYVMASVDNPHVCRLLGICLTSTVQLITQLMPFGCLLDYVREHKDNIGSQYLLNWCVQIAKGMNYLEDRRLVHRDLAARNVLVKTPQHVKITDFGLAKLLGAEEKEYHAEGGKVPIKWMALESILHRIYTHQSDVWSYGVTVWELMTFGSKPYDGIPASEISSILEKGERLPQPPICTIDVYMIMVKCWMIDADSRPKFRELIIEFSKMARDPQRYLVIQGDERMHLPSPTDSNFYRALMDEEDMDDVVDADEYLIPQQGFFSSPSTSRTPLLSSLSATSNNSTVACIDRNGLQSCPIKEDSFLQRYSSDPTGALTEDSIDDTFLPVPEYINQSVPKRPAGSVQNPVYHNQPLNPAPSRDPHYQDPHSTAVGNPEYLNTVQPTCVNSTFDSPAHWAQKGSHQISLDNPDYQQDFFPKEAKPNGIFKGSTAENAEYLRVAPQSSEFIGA
- method notes: Kinase inhibition assay (33P transfer), EGFR
- Format: biochemical
- condition summary: Table 2, kinase inhibition class; read-out: EGFR-1
Quick reference for IC50 among some compounds

Example results:
compound: COc1cc(Nc2ncnc(-n3c(NCC(C)C)nc4ccccc43)n2)cc(OC)c1OC [Compound 407]
observed measurement: > 10 µM
--
compound: COc1cc(Nc2ncnc(-n3c(Nc4ccc(C#N)cc4)nc4ccccc43)n2)cc(OC)c1OC [Compound 381]
observed measurement: > 9.1 µM
--
compound: CC(C)(C)OC(=O)NCc1cccc(Nc2ncnc(Nc3cc(-c4ccco4)n[nH]3)n2)c1 [Compound 985]
observed measurement: 0.892 to 5.35 µM

Let's switch to this compound now.
For the compound shown here, CNc1nc2ccccc2n1-c1ncnc(Nc2cc(OC)c(OC)c(OC)c2)n1 [Compound 417] , give the reported IC50.
> 11 µM
